The measured values listed here are drawn from paper PMC10866937.

molecular target: MERS-CoV nucleocapsid protein (MERS NP) (MERS-CoV, UniProt K9N4V7 1-411); settings: protein: commercial; label: FAM in CE
parameter: binding result

INSERT INTO assay_data (binder, parameter, readout_value) VALUES
  ('TCCACGGTCGGTCCCCTTACCACTGGTCCCTTTGTC (ssDNA) [Seq-4650]', 'binding result', 'binds'),
  ('CACCTCTCACCCCACGGTTCTGGTCCTTCCCCGACG (ssDNA) [Seq-1280]', 'binding result', 'binds'),
  ('AGGGGGGACACCTAGATTGTTGGCCGTGCGGATACG (ssDNA) [Seq-333]', 'binding result', 'binds'),
  ('AGGGGGGACATCTGGAGTGTTGGCCGTGCGGATACG (ssDNA) [Seq-1022]', 'binding result', 'binds'),
  ('ACTCCCACCTTTATTGAGGGCGGTGACGGGTTCCCTC (ssDNA) [Seq-59]', 'binding result', 'binds');
